- CONDITIONS: buffer; pH 7.4; 200.0 µM
READOUT KIND: solubility kinetic

>  <MOLECULE>
CC(OC(=O)C1CC1)C(=O)Nc1ncc(Cl)cc1Cl (centres undefined)

>  <RESULT>
> 45.5 µg/mL

$$$$
>  <MOLECULE>
COC(=O)c1ccc(NC(=O)c2ccc3nc(C)sc3c2)cc1

>  <RESULT>
< 0.3 µg/mL

$$$$
>  <MOLECULE>
CN(C)CCCN1C(=O)C2CCc3[nH]c4ccccc4c3C2C1=O (centres undefined)

>  <RESULT>
> 48.8 µg/mL

$$$$
>  <MOLECULE>
C=CCn1c(C)nc2c(sc3nc4c(cc32)COC(C)(C)C4)c1=O

>  <RESULT>
> 51.2 µg/mL

$$$$
>  <MOLECULE>
CCOC(=O)Nc1ccc(OC)c([N+](=O)[O-])c1

>  <RESULT>
> 36 µg/mL

$$$$
>  <MOLECULE>
COC(=O)CNC(=O)COC(=O)/C=C/c1ccc(F)cc1

>  <RESULT>
> 44.3 µg/mL

$$$$
>  <MOLECULE>
C=CCNC(=O)c1c(O)c2cccc3c2n(c1=O)CCC3

>  <RESULT>
< 0.3 µg/mL

$$$$
>  <MOLECULE>
CC(=O)c1ccc(S(=O)(=O)NCc2cccnc2)cc1

>  <RESULT>
> 43.6 µg/mL

$$$$
>  <MOLECULE>
O=C(O)c1cccc(NC(=S)NCc2ccccc2)c1

>  <RESULT>
> 43 µg/mL

$$$$
>  <MOLECULE>
COc1ccccc1N1CC(C(=O)Nc2ccc(C)c(S(=O)(=O)N3CCOCC3)c2)CC1=O (centres undefined)

>  <RESULT>
> 71 µg/mL

$$$$
>  <MOLECULE>
COc1cc(C(=S)N2CCCC2)ccc1OCc1ccc(C)cc1

>  <RESULT>
< 0.7 µg/mL

$$$$
>  <MOLECULE>
COc1ccccc1CNC(=O)N1CCN(c2ccccc2)CC1

>  <RESULT>
> 48.8 µg/mL

$$$$
>  <MOLECULE>
O=C(CCNC(=O)c1ccco1)Nc1ccccc1N1CCOCC1

>  <RESULT>
> 51.5 µg/mL

$$$$
>  <MOLECULE>
O=C(Nc1ccc(N2CCOCC2)cc1)c1cnccn1

>  <RESULT>
> 42.6 µg/mL

$$$$

----------
- CONDITIONS: buffer; pH 7.4; 200.0 µM
Items are presented alongside their recorded solubility kinetic.

>  <COMPOUND>
CCOC(=O)c1c(O)c(O)c(C(=O)OCC)n1-c1ccccc1

>  <solubility kinetic>
> 47.9 µg/mL

$$$$
>  <COMPOUND>
Cc1cc(C)c(NC(=O)COC(=O)C2CCCO2)c(C)c1 (stereo not given)

>  <solubility kinetic>
> 43.7 µg/mL

$$$$
>  <COMPOUND>
Cc1cc(=O)[nH]c(SCc2cccc3cccnc23)n1

>  <solubility kinetic>
13.4 µg/mL

$$$$
>  <COMPOUND>
CCOC(=O)c1cnc(SCC(=O)NNC(=O)c2ccco2)nc1N

>  <solubility kinetic>
> 54.8 µg/mL

$$$$
>  <COMPOUND>
CC(C)C1CC(CCN)(c2ccccc2)CCO1.O=C(O)C(=O)O (stereo not given)

>  <solubility kinetic>
> 50.6 µg/mL

$$$$
>  <COMPOUND>
CC(C)CN1C(=O)C(=Nc2cccnc2)c2ccccc21

>  <solubility kinetic>
> 41.9 µg/mL

$$$$
>  <COMPOUND>
CC(=O)c1cccc(NC(=O)c2ccc(C)o2)c1

>  <solubility kinetic>
> 36.5 µg/mL

$$$$
>  <COMPOUND>
CC1(C)Cc2nc3oc4c(SCC(N)=O)ncnc4c3cc2CO1

>  <solubility kinetic>
17.8 µg/mL

$$$$
>  <COMPOUND>
CN(C(=O)c1ccc(N2CCCCC2)c([N+](=O)[O-])c1)C1CCS(=O)(=O)C1 (stereo not given)

>  <solubility kinetic>
> 57.2 µg/mL

$$$$
>  <COMPOUND>
CC(=O)Nc1ccc(S(=O)(=O)NC(C)CCc2ccccc2)cc1 (stereo not given)

>  <solubility kinetic>
> 52 µg/mL

$$$$
>  <COMPOUND>
O=C(O)CC/C(=N\NC(=O)CNC(=O)/C=C/c1ccccc1)c1ccccc1

>  <solubility kinetic>
> 56.9 µg/mL

$$$$
>  <COMPOUND>
COc1ccc(C(=O)Nc2nc3ccccc3s2)c(OC)c1

>  <solubility kinetic>
1 µg/mL

$$$$
>  <COMPOUND>
COc1ccc(C(C)=O)cc1Cn1nc(C)c([N+](=O)[O-])c1C

>  <solubility kinetic>
> 45.5 µg/mL

$$$$
>  <COMPOUND>
COc1ccc(C(=O)N(c2ccccn2)C2CCCCC2)c(OC)c1

>  <solubility kinetic>
49.9 µg/mL

$$$$
>  <COMPOUND>
CC(C)c1ccc(Nc2nc(Cl)nc(NCCO)n2)cc1

>  <solubility kinetic>
2.7 µg/mL

$$$$
>  <COMPOUND>
Nc1ccccc1SCC(=O)Nc1nccs1

>  <solubility kinetic>
> 39.8 µg/mL

$$$$
>  <COMPOUND>
Cc1onc(-c2c(F)cccc2Cl)c1C(=O)NCCN1CCNC1=O

>  <solubility kinetic>
> 55 µg/mL

$$$$
>  <COMPOUND>
COc1cccc(NC(=O)CN2C(=O)NC3(CCCCCC3)C2=O)c1

>  <solubility kinetic>
> 51.8 µg/mL

$$$$
>  <COMPOUND>
Oc1ccc(Nc2nc(-c3cccnc3)cs2)cc1

>  <solubility kinetic>
0.8 µg/mL

$$$$
>  <COMPOUND>
COc1ccc(C2=NCC(=S)Nc3ccc(Cl)cc32)cc1OC

>  <solubility kinetic>
< 0.4 µg/mL

$$$$
>  <COMPOUND>
Cc1csc(NC(=O)CSc2ccc([N+](=O)[O-])cn2)n1

>  <solubility kinetic>
33.8 µg/mL

$$$$
>  <COMPOUND>
COC(=O)c1ccc(COc2ncnc3sccc23)cc1

>  <solubility kinetic>
17 µg/mL

$$$$
>  <COMPOUND>
CC(O)CNCc1ccccc1C(F)(F)F.Cl (stereo not given)

>  <solubility kinetic>
> 40.5 µg/mL

$$$$
>  <COMPOUND>
COc1ccc(C2SCC(=O)N2c2ccccc2)cc1 (stereo not given)

>  <solubility kinetic>
38.6 µg/mL

$$$$
>  <COMPOUND>
CC(C)(C)C(=O)OCc1nc(-c2ccc(F)cc2)cs1

>  <solubility kinetic>
< 0.6 µg/mL

$$$$
>  <COMPOUND>
CCCCn1c(N)c(N(CCOC)C(=O)CSc2nnc(-c3ccco3)n2CC)c(=O)[nH]c1=O

>  <solubility kinetic>
> 73.7 µg/mL

$$$$
>  <COMPOUND>
CCOC(=O)Cc1csc(NC(=O)CCC(=O)O)n1

>  <solubility kinetic>
> 42.9 µg/mL

$$$$
>  <COMPOUND>
CC(=O)Nc1ccc(C(=O)Nc2cc(C)on2)cc1

>  <solubility kinetic>
> 38.9 µg/mL

$$$$
>  <COMPOUND>
CN1C2CCC1CC(NC(=O)CSc1ccc(Cl)cc1)C2 (stereo not given)

>  <solubility kinetic>
> 48.7 µg/mL

$$$$
>  <COMPOUND>
COc1ccc2[nH]cc(CCNC(=O)Cc3ccc(F)cc3)c2c1

>  <solubility kinetic>
25.4 µg/mL

$$$$
>  <COMPOUND>
CN1C(C(=O)Nc2ncccn2)=C(O)c2ccccc2S1(=O)=O

>  <solubility kinetic>
> 49.8 µg/mL

$$$$
>  <COMPOUND>
CCc1ccccc1N1C(=O)[C@@H]2Cc3ccccc3CN2C1=O

>  <solubility kinetic>
43.1 µg/mL

$$$$
>  <COMPOUND>
Cc1ccc(C(=O)O/N=C(\c2ccccc2)c2ccncc2)cc1

>  <solubility kinetic>
0.6 µg/mL

$$$$
>  <COMPOUND>
Cc1cccc(CCN=C(N)NS(=O)(=O)c2ccccc2)c1

>  <solubility kinetic>
> 47.6 µg/mL

$$$$
>  <COMPOUND>
CCCC(=O)Nc1ccc(C(=O)COC(=O)c2cc(C)oc2C)cc1

>  <solubility kinetic>
6.7 µg/mL

$$$$
>  <COMPOUND>
Cc1cc2ncc(-c3cccs3)nc2cc1C

>  <solubility kinetic>
< 0.3 µg/mL

$$$$
>  <COMPOUND>
Cc1ccnc(SCC(N)=O)n1

>  <solubility kinetic>
> 27.5 µg/mL

$$$$
>  <COMPOUND>
CC(=O)Nc1nc(CC(C)C)cc(-c2ccccc2)c1C#N

>  <solubility kinetic>
> 44 µg/mL

$$$$
>  <COMPOUND>
COc1ccc(/C=N\Nc2ncc(F)c(N3CCOCC3)n2)cc1OC

>  <solubility kinetic>
> 54.2 µg/mL

$$$$
>  <COMPOUND>
CCOc1ccccc1N1CCN(C(=O)c2cccs2)CC1

>  <solubility kinetic>
45.7 µg/mL

$$$$

Numbers sourced from PubChem BioAssay AID1996.
